Here the recorded S:B Expression is given for each entry.
# system_name: T1, Fc-binding protein (the ZZ domain of ProA)
# T1 construct: domain: ZZ domain of ProA; the construct is not described
# experiment: flow cytometry on cells expressing the Fc-binding ZZ domain on their surface; given as a measure of expression

Here is how some binders turned out for S:B Expression.
binder	experimental_result
Antibody of common light chain B9 (B9chicken) paired with the heavy chain against CD81 (antibody, V domains shown, also called HC-CD81) VH: AVTLDESGGGLQTPGGALSLVCKASGFSIGDYNMGWVRQAPGKGLEWVAGIDAGGGTWRATAVKGRATISRDNGQSTVRLQLNNLRAEDTATYFCAKSTDSSANCCANSIDAWGHGTEVIVSS VL: ALTQPSSVSANPGETVKITCSGGGSSNYYGWYQQKSPGSAPVTLIYGTNKRPSDIPSRFSGSKSGSTGTLTITGVQADDEAVYFCGSADSSTNAGIFGAGTTLTVL	10.8 S:B
Antibody of common light chain B9 (B9chicken) paired with the heavy chain against CD151 (antibody, V domains shown, also called HC-CD151) VH: AVTLDESGGGLQMPGGALSLVCKASGFTFSSYGMEWVRQAPGKGLEWVAGISSGGGSTDYGTAVKGRATISRDNGQSTVRLQLNNLRAEDTGTYFCAKSAYGGTWDGDDIDAWGHGTEVIVSS VL: ALTQPSSVSANPGETVKITCSGGGSSNYYGWYQQKSPGSAPVTLIYGTNKRPSDIPSRFSGSKSGSTGTLTITGVQADDEAVYFCGSADSSTNAGIFGAGTTLTVL	9.7 S:B
Antibody of common light chain C11 (C11chicken) paired with the heavy chain against CD81 (antibody, V domains shown, also called HC-CD81) VH: AVTLDESGGGLQTPGGALSLVCKASGFSIGDYNMGWVRQAPGKGLEWVAGIDAGGGTWRATAVKGRATISRDNGQSTVRLQLNNLRAEDTATYFCAKSTDSSANCCANSIDAWGHGTEVIVSS VL: ALTQPSSVSANPGETVKITCSGGGSWYGSYYYGWYQQKSPGSAPVTLIYNNDKRPSDIPSRFSGSESGSTATLTITGVQAEDEAVYFCGGYDSTTTDMFGAGTTLTVL	9.8 S:B

Data request: Tell me its S:B Expression given Antibody of common light chain B9 (B9chicken) paired with the heavy chain against CD59 (antibody, V domains shown, also called HC-CD59) VH: AVTLDESGGGLQTPGGGLSLVCKASGFDFSSFDMVWVRQAPGKGLEWVAGISYSNTDTSYAPAVDGRATISRDNGQSTVRLQLNNLRAEDSATYYCAKSAGGCCYRADNIDAWGHGTEVIVSS VL: ALTQPSSVSANPGETVKITCSGGGSSNYYGWYQQKSPGSAPVTLIYGTNKRPSDIPSRFSGSKSGSTGTLTITGVQADDEAVYFCGSADSSTNAGIFGAGTTLTVL as the entry.
Data returned: 11.8 S:B

Data request: Tell me its S:B Expression given Antibody of common light chain C11 (C11chicken) paired with the heavy chain against IGSF8 (antibody, V domains shown, also called HC-IGSF8) VH: AVTLDESGGGLQTPGGGLSLVCKASGFSISSYEMQWVRQAPGKGLEWVAGIDDDGSSRAYAPAVKGRATISRDNGQSTVRLQLNNLRAEDTGTYYCAKTIYAATLNAGEIDAWGHGTEVIVSS VL: ALTQPSSVSANPGETVKITCSGGGSWYGSYYYGWYQQKSPGSAPVTLIYNNDKRPSDIPSRFSGSESGSTATLTITGVQAEDEAVYFCGGYDSTTTDMFGAGTTLTVL as the entry.
Data returned: 12 S:B
